Values were extracted from paper PMC7496268.

- SUBJECT_OF_TEST: hDM2 (Homo sapiens, UniProt Q00987)
- Construct: gene MDM2; 15N-labelled for NMR; the anisotropy footnote prints hDM2_17-25, apparently a misprint of 17-125
- ASSAY_REMARKS: fluorescence anisotropy competition, displacement of fluorescein-labelled p53 tracer peptide
- Format: binding
- SETUP_CONDITIONS: read-out: Fluorescence anisotropy^[c] IC50
- Excerpt: fluorescence anisotropy competition, displacement of fluorescein-labelled p53 tracer peptide on hDM2
pIC50: −log10 of the molar value.
RESULT_TYPE: pIC50

COMPOUND	RECORDED_RESULT
CCOCC1CC12C(=O)Nc1cc(Cl)ccc12 (stereo not drawn)	< 3.80
CN(C(=O)C(=O)c1ccc(Cl)cc1)c1ccc(Cl)cc1	< 4.52
CN1C(=O)C(c2ccc(Cl)cc2)c2cc(Cl)ccc21 (stereo not drawn)	< 4.00
